- System: pig pancreas alpha-amylase
- experimental-protocol: Degradation by pig pancreas alpha-amylase
- Assay type: biochemical
- experimental-context: pH6.9, 37° C., 18 hours
Here the recorded G1 (glucose) in degradation product by alpha-amylase is given for each entry.
measurement-kind: G1 (glucose) in degradation product by alpha-amylase (%)

# structure-notation, measurement-unit, observed-measurement
measured = [
    ("OC[C@H]1O[C@H](O[C@H]2O[C@H](CO)[C@@H](O[C@H]3O[C@H](CO)[C@@H](O[C@H]4O[C@H](CO)[C@@H](O)[C@H](O)[C@H]4O)[C@H](O)[C@H]3O)[C@H](O)[C@H]2O)[C@H](O)[C@@H](O)[C@@H]1O", "%", 0),
    ("OC[C@H]1O[C@H](O[C@H]2O[C@H](CO)[C@@H](O[C@H]3O[C@H](CO)[C@@H](O[C@H]4O[C@H](CO)[C@@H](O[C@H]5O[C@H](CO)[C@@H](O[C@H]6O[C@H](CO)[C@@H](O)[C@H](O)[C@H]6O)[C@H](O)[C@H]5O)[C@H](O)[C@H]4O)[C@H](O)[C@H]3O)[C@H](O)[C@H]2O)[C@H](O)[C@@H](O)[C@@H]1O", "%", 1.6),
    ("OC[C@H]1O[C@H](O[C@H]2O[C@H](CO)[C@@H](O[C@H]3O[C@H](CO)[C@@H](O[C@H]4O[C@H](CO)[C@@H](O[C@H]5O[C@H](CO)[C@@H](O[C@H]6O[C@H](CO)[C@@H](O[C@H]7O[C@H](CO)[C@@H](O)[C@H](O)[C@H]7O)[C@H](O)[C@H]6O)[C@H](O)[C@H]5O)[C@H](O)[C@H]4O)[C@H](O)[C@H]3O)[C@H](O)[C@H]2O)[C@H](O)[C@@H](O)[C@@H]1O", "%", 1.0),
    ("OC[C@H]1O[C@H](O[C@H]2O[C@H](CO)[C@@H](O[C@H]3O[C@H](CO)[C@@H](O)[C@H](O)[C@H]3O)[C@H](O)[C@H]2O)[C@H](O)[C@@H](O)[C@@H]1O", "%", 0),
    ("OC[C@H]1O[C@H](O[C@H]2O[C@H](CO)[C@@H](O[C@H]3O[C@H](CO)[C@@H](O[C@H]4O[C@H](CO)[C@@H](O[C@H]5O[C@H](CO)[C@@H](O)[C@H](O)[C@H]5O)[C@H](O)[C@H]4O)[C@H](O)[C@H]3O)[C@H](O)[C@H]2O)[C@H](O)[C@@H](O)[C@@H]1O", "%", 1.2),
]

* * *

- Tested on: non-reducing saccharide-forming enzyme
- Assay type: biochemical, Rhizobium species M-11
- experimental-context: non-reducing saccharide-forming enzyme, 48 h, pH 7
measurement-kind: Composition: residual substrate

# compound, subject-of-test, measurement-kind, observed-measurement
records = [
    ("OC[C@H]1O[C@H](O[C@H]2[C@H](O)[C@@H](O)[C@@H](O[C@H]3[C@H](O)[C@@H](O)[C@@H](O[C@H]4[C@H](O)[C@@H](O)[C@@H](O[C@H]5[C@H](O)[C@@H](O)C(O)O[C@@H]5CO)O[C@@H]4CO)O[C@@H]3CO)O[C@@H]2CO)[C@H](O)[C@@H](O)[C@@H]1O (stereo partly drawn) [Maltopentaose, maltopentaose, reference compound]", "non-reducing saccharide-forming enzyme", "Composition: residual substrate", "7.3%"),
    ("OC[C@H]1O[C@H](O[C@H]2[C@H](O)[C@@H](O)[C@@H](O[C@H]3[C@H](O)[C@@H](O)[C@@H](O[C@H]4[C@H](O)[C@@H](O)[C@@H](O[C@H]5[C@H](O)[C@@H](O)[C@@H](O[C@H]6[C@H](O)[C@@H](O)C(O)O[C@@H]6CO)O[C@@H]5CO)O[C@@H]4CO)O[C@@H]3CO)O[C@@H]2CO)[C@H](O)[C@@H](O)[C@@H]1O (stereo partly drawn) [Maltohexaose, maltohexaose, reference compound]", "non-reducing saccharide-forming enzyme", "Composition: residual substrate", "6.5%"),
    ("OC[C@H]1O[C@H](O[C@H]2[C@H](O)[C@@H](O)[C@@H](O[C@H]3[C@H](O)[C@@H](O)[C@@H](O[C@H]4[C@H](O)[C@@H](O)C(O)O[C@@H]4CO)O[C@@H]3CO)O[C@@H]2CO)[C@H](O)[C@@H](O)[C@@H]1O (stereo partly drawn) [Maltotetraose, maltotetraose, reference compound]", "non-reducing saccharide-forming enzyme", "Composition: residual substrate", "14.4%"),
]

* * *

- Tested on: glucoamylase
- experimental-protocol: Enzymatic hydrolysis by glucoamylase
- Format: biochemical
- experimental-context: degradation product by glucoamylase

# compound, Molar ratio (glucose/trehalose)
measured = [
    ("OC[C@H]1O[C@H](O[C@H]2O[C@H](CO)[C@@H](O[C@H]3O[C@H](CO)[C@@H](O)[C@H](O)[C@H]3O)[C@H](O)[C@H]2O)[C@H](O)[C@@H](O)[C@@H]1O [PI, alpha-glucosyl trehalose]", 1.07),
    ("OC[C@H]1O[C@H](O[C@H]2O[C@H](CO)[C@@H](O[C@H]3O[C@H](CO)[C@@H](O[C@H]4O[C@H](CO)[C@@H](O[C@H]5O[C@H](CO)[C@@H](O)[C@H](O)[C@H]5O)[C@H](O)[C@H]4O)[C@H](O)[C@H]3O)[C@H](O)[C@H]2O)[C@H](O)[C@@H](O)[C@@H]1O [PIII, alpha-maltotriosyl trehalose]", 3.02),
    ("OC[C@H]1O[C@H](O[C@H]2O[C@H](CO)[C@@H](O[C@H]3O[C@H](CO)[C@@H](O[C@H]4O[C@H](CO)[C@@H](O)[C@H](O)[C@H]4O)[C@H](O)[C@H]3O)[C@H](O)[C@H]2O)[C@H](O)[C@@H](O)[C@@H]1O [PII, alpha-maltosyl trehalose]", 2.06),
]

* * *

Here the recorded Coloration degree at 480 nm is given for each entry.
- experimental-protocol: Maillard reaction (coloration with glycine, absorbance at 480 nm)
- Format: physicochemical
- experimental-context: 10% saccharide, 1% glycine, 50 mM phosphate buffer pH7.0, 100° C., 90 minutes, 1 cm cuvette

# compound, Coloration degree at 480 nm
data = [
    ("OC[C@H]1O[C@H](O[C@H]2[C@H](O)[C@@H](O)C(O)O[C@@H]2CO)[C@H](O)[C@@H](O)[C@@H]1O (mixture of isomers)", 0.926),
    ("OC[C@H]1O[C@H](O[C@H]2[C@H](O)[C@@H](O)[C@@H](O[C@H]3[C@H](O)[C@@H](O)[C@@H](O[C@H]4[C@H](O)[C@@H](O)[C@@H](O[C@H]5[C@H](O)[C@@H](O)[C@@H](O[C@H]6[C@H](O)[C@@H](O)[C@@H](O[C@H]7[C@H](O)[C@@H](O)C(O)O[C@@H]7CO)O[C@@H]6CO)O[C@@H]5CO)O[C@@H]4CO)O[C@@H]3CO)O[C@@H]2CO)[C@H](O)[C@@H](O)[C@@H]1O (stereo partly shown) [Maltoheptaose, maltoheptaose, reference compound]", 0.271),
    ("OC[C@H]1O[C@H](O[C@H]2[C@H](O)[C@@H](O)[C@@H](O[C@H]3[C@H](O)[C@@H](O)[C@@H](O[C@H]4[C@H](O)[C@@H](O)[C@@H](O[C@H]5[C@H](O)[C@@H](O)[C@@H](O[C@H]6[C@H](O)[C@@H](O)C(O)O[C@@H]6CO)O[C@@H]5CO)O[C@@H]4CO)O[C@@H]3CO)O[C@@H]2CO)[C@H](O)[C@@H](O)[C@@H]1O (stereo partly shown) [Maltohexaose, maltohexaose, reference compound]", 0.318),
    ("OC[C@H]1O[C@H](O[C@H]2[C@H](O)[C@@H](O)[C@@H](O[C@H]3[C@H](O)[C@@H](O)C(O)O[C@@H]3CO)O[C@@H]2CO)[C@H](O)[C@@H](O)[C@@H]1O (stereo partly shown) [Maltotriose, maltotriose, reference compound]", 0.623),
]

* * *

- Test system: glucoamylase
- experimental-protocol: Enzymatic hydrolysis by glucoamylase
- Format: biochemical
- experimental-context: pH4.5, 40° C., 6 hours
Recorded Glucose in degradation product by glucoamylase, one value per entry.
measurement-kind: Glucose in degradation product by glucoamylase (%)

# structure-notation, observed-measurement
records = [
    ("OC[C@H]1O[C@H](O[C@H]2O[C@H](CO)[C@@H](O[C@H]3O[C@H](CO)[C@@H](O[C@H]4O[C@H](CO)[C@@H](O[C@H]5O[C@H](CO)[C@@H](O[C@H]6O[C@H](CO)[C@@H](O[C@H]7O[C@H](CO)[C@@H](O)[C@H](O)[C@H]7O)[C@H](O)[C@H]6O)[C@H](O)[C@H]5O)[C@H](O)[C@H]4O)[C@H](O)[C@H]3O)[C@H](O)[C@H]2O)[C@H](O)[C@@H](O)[C@@H]1O", 72.9),
    ("OC[C@H]1O[C@H](O[C@H]2O[C@H](CO)[C@@H](O[C@H]3O[C@H](CO)[C@@H](O[C@H]4O[C@H](CO)[C@@H](O[C@H]5O[C@H](CO)[C@@H](O)[C@H](O)[C@H]5O)[C@H](O)[C@H]4O)[C@H](O)[C@H]3O)[C@H](O)[C@H]2O)[C@H](O)[C@@H](O)[C@@H]1O", 61.4),
    ("OC[C@H]1O[C@H](O[C@H]2O[C@H](CO)[C@@H](O[C@H]3O[C@H](CO)[C@@H](O[C@H]4O[C@H](CO)[C@@H](O)[C@H](O)[C@H]4O)[C@H](O)[C@H]3O)[C@H](O)[C@H]2O)[C@H](O)[C@@H](O)[C@@H]1O", 52.0),
    ("OC[C@H]1O[C@H](O[C@H]2O[C@H](CO)[C@@H](O[C@H]3O[C@H](CO)[C@@H](O)[C@H](O)[C@H]3O)[C@H](O)[C@H]2O)[C@H](O)[C@@H](O)[C@@H]1O", 36.2),
    ("OC[C@H]1O[C@H](O[C@H]2O[C@H](CO)[C@@H](O[C@H]3O[C@H](CO)[C@@H](O[C@H]4O[C@H](CO)[C@@H](O[C@H]5O[C@H](CO)[C@@H](O[C@H]6O[C@H](CO)[C@@H](O)[C@H](O)[C@H]6O)[C@H](O)[C@H]5O)[C@H](O)[C@H]4O)[C@H](O)[C@H]3O)[C@H](O)[C@H]2O)[C@H](O)[C@@H](O)[C@@H]1O", 68.3),
]
